target: KRasG12C (M1-K169, biotinylated on the N-terminus) (Homo sapiens (Human), UniProt P01116, G12C); test: Covalent competition assay (scintillation proximity assay, competition with radiolabeled covalent probe Compound B); type: binding; conditions: in vitro KRASG12C activity; 10 nM KRasG12C:GDP, 25 nM radio-ligand and 475 nM unlabelled ligand, incubated 2 hours; read-out: Covalent Competition Assay IC50
measurement_name: IC50 (µM)
Use µM as the unit, but write only the number.

| compound | value |
| --- | --- |
| C=CC(=O)N1CC2(CC(n3nc(-c4cccnc4)c(-c4c(Cl)c(Cl)cc5[nH]ncc45)c3C(F)F)C2)C1 (single isomer, unassigned) [Example 85b] | 21.6 |

The compound listed as C=CC(=O)N1CC2(CC(n3nc(-c4ccc(C(=O)N(C)CC(C)(C)O)cc4)c(-c4c(Cl)c(C)cc5[nH]ncc45)c3C)C2)C1 (single isomer, unassigned) [Example 67a] shows IC50 equal to 0.202

Reference source for all entries: patent US11702409B2
